system: Inhibin beta A chain (activin A); assay: INHBA (activin A) binders on microarrays, primary screen, biochemical, small-molecule microarray, 635 nm fluorescence scan (AID 1107); details: small-molecule microarray binding, higher = more signal;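 note: mouse activin A protein probed at 4.33 µg/mL on printed slides; score merges bound-protein fluorescence near 667 nm with spot signal-to-noise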
True means recorded composite z-score is -0.02 or above; False means it is below -0.02.

| molecule | class.name |
| --- | --- |
| CON=C[C@@H](OC)[C@H](C)C=CCC(=O)OC | True |
| CCN1C(=O)[C@H]2[C@H]3[C@H](O)[C@H](O)CC(=NNC(=O)OCc4ccccc4)[C@H]3CC[C@H]2C1=O | True |
| CCOC(=O)[C@H](CC(C)C)NC(=O)CCC1CC(OC(=O)NCc2ccc3c(c2)OCO3)CC2(CCCC(COC(=O)NCc3ccccc3)O2)O1 (stereo not given in full) | False |
| O=C1CCCC=C1C(O)COCc1ccccc1 (stereo not given) | True |
